system-tested: anti-FXIa antibody 076D-M007-H04-CDRL3-N110D
assay-text: ELISA, 076D-M007-H04-CDRL3-N110D coated at 1 µg/ml, anti-human lambda light chain-peroxidase detection
pEC50: −log10 of the molar value.
measurement-type: pEC50

INSERT INTO measurements (binder, measurement_type, recorded_number) VALUES
  ('TPP-8246 (antibody, human IgG1, lambda, V domains shown) VH: EVQLLESGGGLVQPGGSLRLSCAASGFTFSSYSMNWVRQAPGKGLEWVSTISGSGGITHYADSVKGRFTISRDNSKNTLYLQMNSLRAEDTAVYYCARDRGNRVAARPAFDYWGQGTLVTVSS VL: QSVLTQPPSASGTPGQRVTISCTESSSNTGAGYDVHWYQQLPGTAPKLLIYGNTNRPSGVPDRFSGSKSGTSASLAISGLRSEDEADYYCASWDDNLGGWVFGGGTKLTVLG', 'pEC50', 9.32),
  ('TPP-8240 (antibody, human IgG1, lambda, V domains shown) VH: EVQLLESGGGLVQPGGSLRLSCAASGFTFSSYAMSWVRQAPGKGLEWVAVISYDGSNKHYADSVKGRFTISRDNSKNTLYLQMNSLRAEDTAVYYCARDSMVRGKIFDYWGQGTLVTVSS VL: QSVLTQPPSASGTPGQRVTISCSGSSSNIGNNAVNWYQQLPGTAPKLLIYEDNKRPSGVPDRFSGSKSGTSASLAISGLRSEDEADYYCMIWHSSAWVFGGGTKLTVLG', 'pEC50', 9.67),
  ('TPP-8236 (antibody, human IgG1, lambda, V domains shown) VH: EVQLLESGGGLVQPGGSLRLSCAASGFTFSDYYMNWVRQAPGKGLEWVSTISGTGAAAFYADSVRGRFTISRDNSKNTLYLQMNSLRAEDTAVYYCARDQYLTGGAFDIWGQGTLVTVSS VL: QSVLTQPPSASGTPGQRVTISCSGSSSNIGNNAVNWYQQLPGTAPKLLIYGNSNRPSGVPDRFSGSKSGTSASLAISGLRSEDEADYYCSSYRGSSTLVVFGGGTKLTVLG', 'pEC50', 9.31);
